Provenance of the data: ChEMBL document CHEMBL3108700

Target: Toll-like receptor 4 (Mus musculus)
Test: Inhibition of TLR4 in BALB/c mouse BMDM assessed as downregulation of LPS-stimulated IL-12p40 level at 5 ug/ml preincubated for 18 hrs followed by LPS challenge measured after 24 hrs by ELISA relative to control
Calls of active or inactive are those of the source. How the calls were made is not given here.

chemical_smiles: C[N+]1(CCCS(=O)(=O)Cc2ccc(Br)cc2)CCOCC1
inhibition: inactive
--
chemical_smiles: O=S(=O)(CCN1CCCC1)Nc1ccccc1
inhibition: Active
--
chemical_smiles: CN(C)CCN(C)CCS(=O)(=O)NCc1ccc(Br)cc1
inhibition: Active
--
chemical_smiles: O=S(=O)(Cc1ccccc1)NCCN1CCOCC1
inhibition: inactive
--
chemical_smiles: COc1ccc2c(CS(=O)(=O)NCCN3CCCC3)cc(=O)oc2c1
inhibition: Active
--
chemical_smiles: O=[N+]([O-])c1ccc(CS(=O)(=O)NCCN2CCOCC2)cc1
inhibition: inactive
--
chemical_smiles: C[N+]1(CCCS(=O)(=O)Cc2ccc(Br)cc2)CCCC1
inhibition: inactive
--
chemical_smiles: CC[C@@H](C)NCCS(=O)(=O)c1ccccc1
inhibition: inactive
--
chemical_smiles: CN(C)CCCS(=O)(=O)Cc1ccc(Br)cc1
inhibition: inactive
--
chemical_smiles: CN(C)CCCNC(=O)Cc1ccccc1
inhibition: inactive
--
chemical_smiles: Cc1ccc(CS(=O)(=O)NCCCN(C)C)cc1
inhibition: inactive
--
chemical_smiles: O=C(CCN1CCOCC1)NCc1cccc2cnccc12
inhibition: inactive
--
chemical_smiles: O=S(=O)(CCN1CCOCC1)Cc1cccc(F)c1
inhibition: inactive
--
chemical_smiles: O=S(=O)(Cc1ccc(F)cc1)NCCN1CCOCC1
inhibition: inactive
--
chemical_smiles: Cc1ccc(CNS(=O)(=O)CCN2CCCC2)cc1
inhibition: inactive
--
chemical_smiles: O=[N+]([O-])c1ccc(CNS(=O)(=O)CCN2CCOCC2)cc1
inhibition: inactive
--
chemical_smiles: Cc1ccc(CNS(=O)(=O)CCN(C)C)cc1
inhibition: inactive
--
chemical_smiles: CN(C)CCNS(=O)(=O)Cc1ccc(/C=C/c2ccccc2)cc1
inhibition: inactive
--
chemical_smiles: O=S(=O)(Cc1ccc(Br)cc1)NCCN1CCOCC1
inhibition: inactive
--
chemical_smiles: CC[C@@H](C)NCCS(=O)(=O)Cc1ccc(Br)cc1
inhibition: inactive
--
chemical_smiles: O=S(=O)(CCN1CCOCC1)NCc1ccc(F)cc1
inhibition: inactive
--
chemical_smiles: CN(C)CCNC(=O)Cc1ccccc1
inhibition: Active
--
chemical_smiles: CN(C)CCNS(=O)(=O)Cc1ccc(F)cc1
inhibition: inactive
--
chemical_smiles: CN(C)CCCOP(=O)(O)Oc1ccc(NC(=O)OC(C)(C)C)cc1
inhibition: inactive
--
chemical_smiles: O=C(Cc1ccccc1)NCCN1CCOCC1
inhibition: Active
--
chemical_smiles: CC(C)(C)NCCS(=O)(=O)c1ccccc1
inhibition: inactive
--
chemical_smiles: CN(C)CCCNS(=O)(=O)Cc1ccc(Br)cc1
inhibition: inactive
--
chemical_smiles: C[N+](C)(C)CCCS(=O)(=O)Cc1ccc(Br)cc1
inhibition: inactive
--
chemical_smiles: O=S(=O)(CCNCCCO)c1ccccc1
inhibition: inactive
